The origin of these recorded values is patent US11149037B2.

TEST TARGET: MAGL (Mus musculus (Mouse))
Sequence (O35678 whole entry): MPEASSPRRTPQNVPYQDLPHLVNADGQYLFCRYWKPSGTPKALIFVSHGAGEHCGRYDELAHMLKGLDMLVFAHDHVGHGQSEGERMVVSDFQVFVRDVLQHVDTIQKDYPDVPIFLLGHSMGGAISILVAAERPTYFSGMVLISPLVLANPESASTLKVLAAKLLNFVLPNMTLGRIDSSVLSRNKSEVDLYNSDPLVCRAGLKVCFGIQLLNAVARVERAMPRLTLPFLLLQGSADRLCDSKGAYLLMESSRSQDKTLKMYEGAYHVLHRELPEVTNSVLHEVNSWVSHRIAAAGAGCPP
ASSAY REMARKS: In vitro competitive activity-based protein profiling, mouse proteomes (brain membrane fraction or cell lysates)
Format: biochemical
CONDITION PARAMETERS: mouse proteome, read-out: MAGL % inh. 1 μM (mouse)
READOUT KIND: inhibition at 1 µM

# SUBSTANCE SMILES, inhibition at 1 µM
records = [
    ("C[C@H]1CN(C(=O)n2ccc(NS(C)(=O)=O)n2)CCN1Cc1ccc(C(F)(F)F)c(N2CCC(C(F)(F)F)CC2)c1", "> 75%"),
    ("CS(=O)(=O)Nc1ccn(C(=O)N2CCN(Cc3ncccc3N3CCCC3)CC2)n1", "25 to 50%"),
    ("CS(=O)(=O)Nc1ccn(C(=O)N2CCN(Cc3ccc(Cl)c(N4C[C@H]5C[C@@H]4CO5)c3)CC2)n1", "> 75%"),
]

Field request: inhibition at 1 µM | item: `CC(=O)Nc1ccn(C(=O)N2CCN(Cc3ccc(C(F)(F)F)cc3NCCCC(=O)O)CC2)n1`
> 75%
